Origin of values: patent US20250152585A1

tgt: full length N-terminally FLAG-tagged PARP1 (Homo sapiens, UniProt P09874)
Sequence (P09874 whole entry): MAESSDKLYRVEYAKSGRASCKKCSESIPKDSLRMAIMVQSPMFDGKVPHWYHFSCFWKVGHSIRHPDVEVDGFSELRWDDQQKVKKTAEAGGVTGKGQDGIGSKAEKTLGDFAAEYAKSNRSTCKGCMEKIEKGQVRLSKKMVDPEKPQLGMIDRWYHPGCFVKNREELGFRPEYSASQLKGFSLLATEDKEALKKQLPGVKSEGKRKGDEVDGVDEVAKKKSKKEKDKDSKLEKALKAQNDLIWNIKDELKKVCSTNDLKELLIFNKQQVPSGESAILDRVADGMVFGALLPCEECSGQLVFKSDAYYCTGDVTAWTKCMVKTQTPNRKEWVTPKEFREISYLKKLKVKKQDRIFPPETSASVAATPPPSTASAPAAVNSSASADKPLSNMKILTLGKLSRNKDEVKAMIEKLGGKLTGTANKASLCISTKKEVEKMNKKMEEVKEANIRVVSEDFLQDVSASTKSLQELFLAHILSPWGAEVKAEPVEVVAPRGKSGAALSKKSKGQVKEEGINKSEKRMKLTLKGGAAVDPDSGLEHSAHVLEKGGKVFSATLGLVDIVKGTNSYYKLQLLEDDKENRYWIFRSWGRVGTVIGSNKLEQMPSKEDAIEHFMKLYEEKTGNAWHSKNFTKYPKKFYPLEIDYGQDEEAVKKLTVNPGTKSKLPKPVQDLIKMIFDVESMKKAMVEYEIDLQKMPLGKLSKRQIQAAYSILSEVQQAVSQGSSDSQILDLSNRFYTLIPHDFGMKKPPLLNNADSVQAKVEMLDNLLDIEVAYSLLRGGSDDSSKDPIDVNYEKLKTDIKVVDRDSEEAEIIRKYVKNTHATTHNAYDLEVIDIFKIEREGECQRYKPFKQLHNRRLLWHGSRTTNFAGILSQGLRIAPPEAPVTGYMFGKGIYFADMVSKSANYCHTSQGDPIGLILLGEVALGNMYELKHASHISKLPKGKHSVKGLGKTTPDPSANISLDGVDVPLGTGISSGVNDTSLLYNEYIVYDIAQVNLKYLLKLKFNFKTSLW
experiment.summary: PARP1 probe displacement HTRF assay
protocol.conditions: read-out: PARP1 HTRF; binned Kd, PARP1 probe displacement HTRF
observed.property: Kd

CNC(=O)c1ccc(N2CCC(N3CCC(c4cc5ccc(F)cc5c(=O)[nH]4)C3)CC2)c(F)n1 (racemic) [Compound 174rac] ... < 10 nM
CCc1ccc(C2CCN(C3CCN(c4ccc(C(=O)NCCOC)nc4)CC3)C2)[nH]c1=O (racemic) ... < 10 nM
CNC(=O)c1cc(C)c(N2CCC(N3CCC(c4cc5ccccc5c(=O)[nH]4)C3)CC2)c(C)n1 (single isomer, unassigned) [Compound 205b] ... 10 to 100 nM
CCc1ccc(C2CCN(C3CCN(c4ccc(C(=O)NC)nc4C)CC3)C2)[nH]c1=O (single isomer, unassigned) [Compound 133a] ... < 10 nM
CNC(=O)c1ccc(N2CCC(N3CCCC(c4nc5ccc(F)cc5c(=O)[nH]4)C3)CC2)cn1 (single isomer, unassigned) [Compound 78a] ... < 10 nM
O=C(NCCF)c1ccc(N2CCC(N3CCCC(c4nc5ccccc5c(=O)[nH]4)C3)CC2)cn1 (single isomer, unassigned) [Compound 110a] ... < 10 nM
CNC(=O)c1ccc(N2CCC(N3CCC(c4ccc(Cl)c(=O)[nH]4)C3)CC2)cn1 (single isomer, unassigned) [Compound 201b] ... < 10 nM
N#Cc1ccc(N2CCC(N3CCC(c4nc5ccccc5c(=O)[nH]4)C3)CC2)cn1 (single isomer, unassigned) [Compound 69b] ... 10 to 100 nM
CNC(=O)c1ccc(N2CCC(N3CCC(c4cc5cccc(F)c5c(=O)[nH]4)C3)CC2)c(Cl)n1 (single isomer, unassigned) [Compound 183b] ... < 10 nM
CNC(=O)c1cc(C)c(N2CCC(N3CCC(c4cc5ccncc5c(=O)[nH]4)C3)CC2)c(C)n1 (racemic) ... < 10 nM

Attention now turns to another entry.
Answer with the recorded Kd for the molecule listed here: CNC(=O)c1ccc(N2CCC(N3CCCC(c4nc5ccccc5c(=O)[nH]4)C3)CC2)c(C)n1 (single isomer, unassigned) [Compound 131b]
< 10 nM
